Origin of values: ChEMBL document CHEMBL1130590

Target: Phosphodiesterase 4 (Homo sapiens, UniProt P27815+Q08499+Q07343+Q08493)
Assay: Ratio of binding activity at catalytic site to Rolipram binding site of PDE4
Format: protein assay
ASSAY_METRIC: Ratio
Write the value as a bare number.

1) COc1ccc(S(=O)(=O)N(Cc2cccnc2)S(C)(=O)=O)cc1OC; 0.12

Now let's try a different one.
I am curious: what Ratio value has been reported for `CCCN(Cc1ccc(C(=O)NC)cc1)S(=O)(=O)c1ccc(OC)c(OC)c1` ?
0.44

----------
Biological target: Phosphodiesterase 4 (Homo sapiens, UniProt P27815+Q08499+Q07343+Q08493)
Experiment: Ratio of binding activity at catalytic site to Rolipram binding site of PDE4
Assay type: protein assay
Reported Ratio values for a set of compounds

Previously resolved entries follow.
1. COc1ccc(S(=O)(=O)N(CC#N)Cc2ccco2)cc1OC; > 1
2. COc1ccc(S(=O)(=O)N(CCC#N)Cc2ccco2)cc1OC; < 1
3. COc1ccc(S(=O)(=O)NC2CCCC2)cc1OC; < 1

Recall the recorded Ratio for `COC(=O)CN(Cc1ccco1)S(=O)(=O)c1ccc(OC)c(OC)c1` with Phosphodiesterase 4 (Homo sapiens, UniProt P27815+Q08499+Q07343+Q08493) and state it.
< 1

Recall the recorded Ratio for COc1ccc(S(=O)(=O)NC2CCc3cc(Cl)ccc32)cc1OC (stereo unspecified) with Phosphodiesterase 4 (Homo sapiens, UniProt P27815+Q08499+Q07343+Q08493) and state it.
< 0.5

Recall the recorded Ratio for `COc1ccc(S(=O)(=O)N(CCCC#N)Cc2ccco2)cc1OC` with Phosphodiesterase 4 (Homo sapiens, UniProt P27815+Q08499+Q07343+Q08493) and state it.
< 1
